Where do these numbers come from? They come from paper PMC11945201.

- System: glutathione S-transferase (GST)
- method.notes: Glutathione S-transferase assay (CDNB conjugation, absorbance 340 nm)
- Assay type: biochemical, equine
- measurement.parameters: yes/no; compared to GSH; more than 50% considered retaining GST activity
attribute.measured: GST Activity > 50%

CN(C(=O)CC[C@H](N)C(=O)O)[C@@H](CS)C(=O)NCC(=O)O | ✔ (✔: yes)
CN(CC(=O)O)C(=O)[C@H](CS)NC(=O)CC[C@H](N)C(=O)O | X (X: no)
CN[C@@H](CCC(=O)N[C@@H](CS)C(=O)NCC(=O)O)C(=O)O | X (X: no)
N[C@H](CCC(=O)N[C@@H](CS)C(=O)NCC(=O)O)C(=O)O | X (X: no)
N[C@H](CCC(=O)N[C@H](CS)C(=O)NCC(=O)O)C(=O)O | ✔ (✔: yes)
N[C@@H](CCC(=O)N[C@H](CS)C(=O)NCC(=O)O)C(=O)O | X (X: no)
N[C@@H](CCC(=O)N[C@@H](CS)C(=O)NCC(=O)O)C(=O)O [GSH, Glutathione] | ✔ (✔: yes)

Now for another entry.
Lab note: measured GST Activity > 50% of N[C@@H](CCC(=O)N[C@@H](CS)C(=O)NCC(=O)O)C(=O)O [Compound 1.61] was ✔ (✔: yes)

----------
- Test system: glutathione reductase (GR) and glutathione peroxidase (GPx)
- method.notes: Glutathione reductase and glutathione peroxidase coupled assay (NADPH, 340 nm)
- Format: biochemical, yeast (GR), bovine (GPx)
- measurement.parameters: qualitative analysis
attribute.measured: activity with GPx and GR enzymes (in words)

CN(CC(=O)O)C(=O)[C@H](CS)NC(=O)CC[C@H](N)C(=O)O | retention of activity
CN[C@@H](CCC(=O)N[C@@H](CS)C(=O)NCC(=O)O)C(=O)O | retention of activity
CN(C(=O)CC[C@H](N)C(=O)O)[C@@H](CS)C(=O)NCC(=O)O | retention of activity
N[C@@H](CCC(=O)N[C@H](CS)C(=O)NCC(=O)O)C(=O)O | loss of activity

Lab note: measured activity with GPx and GR enzymes (in words) of N[C@H](CCC(=O)N[C@H](CS)C(=O)NCC(=O)O)C(=O)O was loss of activity

----------
- Tested on: aminopeptidase
- method.notes: in vitro
- measurement.parameters: aminopeptidase solution
attribute.measured: half-life at 100 μgmL^−1 (h)
// note: answer is a bare numeric in h

Entry N[C@@H](CCC(=O)N[C@@H](CS)C(=O)NCC(=O)O)C(=O)O , tested on aminopeptidase, has a reported half-life at 100 μgmL^−1 of 18.9

----------
- Tested on: Fibroblast cells
- method.notes: UV rescue of UVA-irradiated fibroblast cells (MTT)
- Format: cell-based
- measurement.parameters: UVA 1 h, then peptide 0.0325 mmolL^−1, 24 h, mean ± SD, n = 6
Hi there, I'd appreciate the recorded % Cell Viability (with UV) for every entry that follows.
// note: answer is a bare numeric in %

Lab note: measured % Cell Viability (with UV) of N[C@H](CCC(=O)N[C@@H](CS)C(=O)NCC(=O)O)C(=O)O was 101.1

Lab note: measured % Cell Viability (with UV) of N[C@@H](CCC(=O)N[C@@H](CS)C(=O)NCC(=O)O)C(=O)O [GSH, Glutathione] was 87.7

Lab note: measured % Cell Viability (with UV) of CN[C@@H](CCC(=O)N[C@@H](CS)C(=O)NCC(=O)O)C(=O)O was 97.0

Lab note: measured % Cell Viability (with UV) of N[C@@H](CCC(=O)N[C@@H](CS)C(=O)NCC(=O)O)C(=O)O [Compound 1.61] was 69.0

Lab note: measured % Cell Viability (with UV) of N[C@@H](CCC(=O)N[C@H](CS)C(=O)NCC(=O)O)C(=O)O was 70.8

Lab note: measured % Cell Viability (with UV) of N[C@H](CCC(=O)N[C@H](CS)C(=O)NCC(=O)O)C(=O)O was 98.5

Lab note: measured % Cell Viability (with UV) of CN(C(=O)CC[C@H](N)C(=O)O)[C@@H](CS)C(=O)NCC(=O)O was 112.4

Lab note: measured % Cell Viability (with UV) of CN(CC(=O)O)C(=O)[C@H](CS)NC(=O)CC[C@H](N)C(=O)O was 69.3

----------
- method.notes: in vitro
- measurement.parameters: rat, jejunum luminal contents
attribute.measured: half-life at 100 μgmL^−1 (h)
// note: answer is a bare numeric in h

Lab note: measured half-life at 100 μgmL^−1 of N[C@@H](CCC(=O)N[C@@H](CS)C(=O)NCC(=O)O)C(=O)O [GSH, Glutathione] was 30.5

----------
- test.target: chymotrypsin (Bos taurus)
- method.notes: in vitro
- measurement.parameters: bovine, chymotrypsin solution
attribute.measured: half-life at 100 μgmL^−1 (h)
// note: answer is a bare numeric in h

Lab note: measured half-life at 100 μgmL^−1 of N[C@@H](CCC(=O)N[C@@H](CS)C(=O)NCC(=O)O)C(=O)O was 4.6

----------
- method.notes: physchem
- measurement.parameters: HBSS buffer, pH 7.4
attribute.measured: half-life at 100 μgmL^−1 (h)
// note: answer is a bare numeric in h

Lab note: measured half-life at 100 μgmL^−1 of N[C@@H](CCC(=O)N[C@@H](CS)C(=O)NCC(=O)O)C(=O)O was 46.3

----------
- Test system: γ-glutamyl transferase (GGT)
- method.notes: in vitro
- measurement.parameters: horse, γ-glutamyl transferase (GGT) solution
attribute.measured: half-life at 100 μgmL^−1 (min)
// note: answer is a bare numeric in min

Lab note: measured half-life at 100 μgmL^−1 of N[C@@H](CCC(=O)N[C@@H](CS)C(=O)NCC(=O)O)C(=O)O [GSH, Glutathione] was 42

----------
- Tested on: γ-glutamyl transferase (GGT)
- Format: in vitro ADME, equine
- measurement.parameters: horse, 100 μgmL^−1, pH 9
Field: label. Allowed values: satisfied (% Degradation by GGT < 80%) or not satisfied (% Degradation by GGT >= 80%).

Prompt: Would you kindly verify if % Degradation by GGT of N[C@H](CCC(=O)N[C@H](CS)C(=O)NCC(=O)O)C(=O)O is strictly less than 80%?
Response: satisfied

Prompt: Would you kindly verify if % Degradation by GGT of N[C@H](CCC(=O)N[C@@H](CS)C(=O)NCC(=O)O)C(=O)O is strictly less than 80%?
Response: satisfied

Prompt: Would you kindly verify if % Degradation by GGT of CN(CC(=O)O)C(=O)[C@H](CS)NC(=O)CC[C@H](N)C(=O)O is strictly less than 80%?
Response: not satisfied

Prompt: Would you kindly verify if % Degradation by GGT of N[C@@H](CCC(=O)N[C@@H](CS)C(=O)NCC(=O)O)C(=O)O is strictly less than 80%?
Response: not satisfied

Prompt: Would you kindly verify if % Degradation by GGT of CN(C(=O)CC[C@H](N)C(=O)O)[C@@H](CS)C(=O)NCC(=O)O is strictly less than 80%?
Response: satisfied

Prompt: Would you kindly verify if % Degradation by GGT of CN[C@@H](CCC(=O)N[C@@H](CS)C(=O)NCC(=O)O)C(=O)O is strictly less than 80%?
Response: satisfied

----------
- method.notes: Pharmacokinetic study after IV injection or oral gavage
- Format: in vivo, male Sprague Dawley rat
- measurement.parameters: male, Sprague-Dawley, plasma; oral, 75 mg per rat, AUC0-48, mean ± SD, n = 4
- Description: Pharmacokinetic studies were conducted using a male Sprague Dawley rat model. […] The animal experiments were performed in China, complying with the guide for care and use of laboratory animals. […] The 1.70 concentration for each group (oral/IV) was determined using a modified LC-MS method adapted from the GSH protocol. […] Data were acquired and analysed using Agilent Mass Hunter Software (version A.02.17).
Hi there, I'd appreciate the recorded AUC for every entry that follows.
// note: answer is a bare numeric in ng·h/mL

Lab note: measured AUC of CN(C(=O)CC[C@H](N)C(=O)O)[C@@H](CS)C(=O)NCC(=O)O [Compound 1.70] was 82

Lab note: measured AUC of N[C@@H](CCC(=O)N[C@@H](CS)C(=O)NCC(=O)O)C(=O)O [GSH, Glutathione] was 36

----------
- test.target: trypsin (Bos taurus, UniProt P00760)
- Sequence (P00760 24-246): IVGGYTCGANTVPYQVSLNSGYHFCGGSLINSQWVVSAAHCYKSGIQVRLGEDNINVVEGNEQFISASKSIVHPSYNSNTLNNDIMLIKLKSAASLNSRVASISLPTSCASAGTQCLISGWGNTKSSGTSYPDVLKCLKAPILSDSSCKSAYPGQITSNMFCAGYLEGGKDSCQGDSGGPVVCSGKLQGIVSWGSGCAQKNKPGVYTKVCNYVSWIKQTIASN
- method.notes: in vitro
- measurement.parameters: bovine, trypsin solution
attribute.measured: half-life at 100 μgmL^−1 (h)
// note: answer is a bare numeric in h

Lab note: measured half-life at 100 μgmL^−1 of N[C@@H](CCC(=O)N[C@@H](CS)C(=O)NCC(=O)O)C(=O)O [GSH, Glutathione] was 5.8

----------
- method.notes: in vitro
- measurement.parameters: rat, jejunum mucosal homogenates
attribute.measured: half-life at 100 μgmL^−1 (h)
// note: answer is a bare numeric in h

Lab note: measured half-life at 100 μgmL^−1 of N[C@@H](CCC(=O)N[C@@H](CS)C(=O)NCC(=O)O)C(=O)O was 9.4
